Target: T1, EH domain of human γ-synergin, longest construct (residues 279–388) (human, UniProt Q9UMZ2 279-388)
T1 construct: two additional residues (Serine-Methionine) left at the N-terminus by the vector pNIC28-Bsa4 after TEV cleavage of the tag; γ-synergin, human, residues 279-388 (EH domain with N- and C-terminal structured extensions); also called EHγ; EHγ domain; source: E. coli BL21(DE3), purified (Ni-IMAC, TEV cleavage, SEC on Superdex 75); 15N-labelled in M9 medium for NMR; not shown: His tag, N-terminal, …
T1 sequence: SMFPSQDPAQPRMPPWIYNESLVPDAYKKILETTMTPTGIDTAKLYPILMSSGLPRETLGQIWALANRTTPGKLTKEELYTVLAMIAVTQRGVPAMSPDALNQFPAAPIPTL
Experiment: NMR titration; unlabelled peptide added stepwise to 15N-labelled EHγ, 1H-15N HSQC, up to n = 2 (Pep A, C) and n = 3.2 (Pep B); 20 mM Tris pH 7.5, 100 mM NaCl, 2 mM CaCl2, 10% D2O, 298 K; joint fit of I324, L325, W339 to a one site binding model
Details: both partners purified
Ends that are not written are not given here.
property label: Kd (µM)

In [3]: df
Out[3]:
                                     binder  property_label  meas_value
0  SDFDSNPFADPDLNY-NH2 [peptide A, SCAMP1 derived peptide with a single NPF-repeat]              Kd         110

a = GLDEYNPFSDSRT-NH2 [peptide C, SCAMP1 derived peptide with a single NPF-repeat]
b = ADPDLNNPFKDPSVTY-NH2 [peptide B, SCAMP1 derived peptide with a single NPF-repeat]
q: Of the two listed items, a and b , which carries the larger Kd figure? Please respond with the label that marks your chosen entry.
a: b
